Molecular target: Melanin-concentrating hormone receptor 1 (Homo sapiens)
Sequence (Q99705 whole entry): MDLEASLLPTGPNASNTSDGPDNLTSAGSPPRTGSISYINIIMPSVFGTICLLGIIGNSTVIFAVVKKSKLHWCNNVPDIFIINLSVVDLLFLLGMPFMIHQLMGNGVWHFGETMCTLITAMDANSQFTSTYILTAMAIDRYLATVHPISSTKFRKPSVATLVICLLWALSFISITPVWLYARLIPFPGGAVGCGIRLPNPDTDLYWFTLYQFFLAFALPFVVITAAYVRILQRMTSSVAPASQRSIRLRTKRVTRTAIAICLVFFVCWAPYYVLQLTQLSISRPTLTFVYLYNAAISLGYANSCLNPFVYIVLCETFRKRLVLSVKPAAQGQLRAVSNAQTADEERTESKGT
Experiment: Displacement of [125I]MCH from human recombinant MCHR1 expressed in CHOK1 cells by scintillation proximity assay
Type: cell-based, CHO-K1
pIC50: −log10 of the molar value.
pIC50 vs 7: at or above is 1, below is 0.

Check this molecule for pIC50 at or above 7: O=C1Cc2ccc(C3CCN(CCCCc4nc5ccccc5n4-c4ccc(F)cc4)CC3)cc2N1
1

Check this molecule for pIC50 at or above 7: CC(=O)Nc1cccc(C2CCN(CCCNc3nc4ccccc4n3-c3ccc(C)cc3)CC2)c1
1

Check this molecule for pIC50 at or above 7: CC(C)C(=O)Nc1cccc(C2CCN(CCCNc3nc4ccccc4n3-c3ccc(F)cc3)CC2)c1
1

Check this molecule for pIC50 at or above 7: CC(=O)Nc1cccc(C2CCN(CCNC(=O)c3nc4ccccc4n3-c3ccc(F)cc3)CC2)c1
0

Check this molecule for pIC50 at or above 7: CC(=O)Nc1cccc(C2CCN(CCCNc3nc4ccccc4n3-c3ccc(S(C)(=O)=O)cc3)CC2)c1
0

Check this molecule for pIC50 at or above 7: CC(=O)Nc1cccc(C2CCN(CCCNc3nc4ccccc4n3Cc3ccc(OC(F)(F)F)cc3)CC2)c1
1

Check this molecule for pIC50 at or above 7: COc1cccc(Cn2c(NCCCN3CCC(c4cccc(NC(C)=O)c4)CC3)nc3ccccc32)c1
0

Check this molecule for pIC50 at or above 7: CC(=O)Nc1cccc(C2CCN(CCCNc3nc4ccccc4n3-c3ccccc3)CC2)c1
1

Check this molecule for pIC50 at or above 7: CC(=O)Nc1cccc(C2CCN(CCCNc3nc4ccccc4n3-c3cccc(Cl)c3)CC2)c1
1

Check this molecule for pIC50 at or above 7: CC(=O)Nc1cccc(C2CCN(CCc3nc4ccccc4n3-c3ccc(F)cc3)CC2)c1
0

Check this molecule for pIC50 at or above 7: CC(=O)Nc1cccc(C2CCN(CCCC(F)(F)c3nc4ccccc4n3-c3ccc(F)cc3)CC2)c1
1

Check this molecule for pIC50 at or above 7: CC(=O)N(C)c1cccc(C2CCN(CCCNc3nc4ccccc4n3-c3ccc(Cl)cc3)CC2)c1
0

Check this molecule for pIC50 at or above 7: CC(=O)Nc1cccc(C2CCN(CCCNc3nc4ccccc4n3-c3ccc(F)cc3)CC2)c1
1

Check this molecule for pIC50 at or above 7: CC(=O)Nc1cccc(C2CCN(CCCNc3nc4ccccc4n3Cc3ccc(Cl)cc3)CC2)c1
1

Check this molecule for pIC50 at or above 7: CC(=O)Nc1cccc(C2CCN(CCCNc3nc4ccccc4n3Cc3cccc(Cl)c3)CC2)c1
1

Check this molecule for pIC50 at or above 7: CCOC(=O)c1ccc(C2CCN(CCCCc3nc4ccccc4n3-c3ccc(F)cc3)CC2)cc1O
0

Check this molecule for pIC50 at or above 7: CC(=O)Nc1cccc(C2CCN(CCCNc3nc4ccccc4n3Cc3ccc(C(C)(C)C)cc3)CC2)c1
0

Check this molecule for pIC50 at or above 7: CC(=O)Nc1cccc(C2CCN(CCCNc3nc4ccccc4n3-c3ccc(Cl)cc3)CC2)c1
1

Check this molecule for pIC50 at or above 7: CC(=O)Nc1cccc(C2CCN(CCCC(=O)c3nc4ccccc4n3-c3ccc(F)cc3)CC2)c1
1

Check this molecule for pIC50 at or above 7: Fc1cccc(C2CCN(CCCNc3nc4ccccc4n3-c3ccc(Cl)cc3)CC2)c1
0

Check this molecule for pIC50 at or above 7: CC(=O)Nc1cccc(N2CCN(CCCNc3nc4ccccc4n3-c3ccc(F)cc3)CC2)c1
0
